Data provenance: PubChem BioAssay (NCI)

System: UACC-257 melanoma
procedureDetails: NCI tumour cell line growth inhibition, 48 h
endpoint: TGI

1) COc1ccc(N2CCN(C(=O)c3ccc(C(F)(F)F)nc3Nc3cc(Cl)ccc3C)CC2)cc1 = 28.3 µM
2) CCOC(=O)/C(SC#N)=C(/N)N1CCCC1 = > 100 µM
3) Cc1cc(C)n(C(=O)CSc2nc3ccc(I)cc3c(=O)n2Cc2ccccc2)n1 = > 100 µM
4) CCOP(=O)(OCC)/C(C#N)=C\c1ccc(OC(C)=O)cc1 = > 100 µM

[in] Specify measured TGI for CCOC(=O)C1=C(OC(OCC)C(C)[Se]c2ccccc2)CCC1 (stereo not given) .
[out] > 100 µM
